Test system: HeLa cells
testConditions: human
propertyLabel: CC50 (µM)
# number only, unit µM dropped from output

1) CCN(CC)CCCC(C)Nc1c2ccc(Cl)cc2nc2ccc(OC)cc12 (stereo not drawn) [Quinacrine]    8.62
2) CCN(CC)CCOc1ccc2c(c1)C(=O)c1cc(OCCN(CC)CC)ccc1-2 [Tilorone]    18

Read the next record carefully.
Give reported CC50 value for COc1ccc2nc3cc(Cl)ccc3c(Nc3cc(CN4CCCC4)c(O)c(CN4CCCC4)c3)c2n1 [Pyronaridine] 4.11

----------
testMethodNotes: in vivo
testConditions: male, Hartley, guinea pig, po, 30 mg/kg, T1/2
propertyLabel: half-life (h)
Record the value in h, omitting the unit from your answer.

// fetch half-life given entry `CCN(CC)CCOc1ccc2c(c1)C(=O)c1cc(OCCN(CC)CC)ccc1-2` 15.6
